System: Nannizzia gypsea
test_summary: Antifungal activity against Microsporum gypseum Cmccfmza assessed as growth inhibition by automatic microplate reader analysis
Assay type: functional
Hi there, I'd appreciate the recorded MIC80 for every entry that follows.

Check out these entries, answers already filled in.
# compound, endpoint, data_value
records = [
    ("OC(Cn1cncn1)(Cn1cncn1)c1ccc(F)cc1F", "MIC80", "8 µg/mL"),
    ("CN(C/C=C/C#CC(C)(C)C)Cc1cccc2ccccc12", "MIC80", "0.25 µg/mL"),
    ("C/C=C/C=C/C=C/[C@H]1C[C@@H](O)[C@H](O)C(=O)[C@@H]1CO", "MIC80", "> 64 µg/mL"),
    ("CC(=O)N1CCN(c2ccc(OCC3COC(Cn4ccnc4)(c4ccc(Cl)cc4Cl)O3)cc2)CC1 (stereo not given)", "MIC80", "0.125 µg/mL"),
]

Lab note: next compound to report on.
[in] Name the reported MIC80 value associated with the compound `C/C=C/C=C/C=C/[C@H]1C[C@@H](O)[C@H](O)[C@H](O)[C@@H]1CO`
[out] > 64 µg/mL

* * *

Tested on: Cryptococcus neoformans
test_summary: Antifungal activity against Cryptococcus neoformans 32609 assessed as growth inhibition by automatic microplate reader analysis
Type: functional
Hi there, I'd appreciate the recorded MIC80 for every entry that follows.
Numbers only, in µg/mL.

Check out these entries, answers already filled in.
# molecule, assayed_system, unit_tag, data_value
measured = [
    ("CC(=O)N1CCN(c2ccc(OCC3COC(Cn4ccnc4)(c4ccc(Cl)cc4Cl)O3)cc2)CC1 (centres undefined)", "Cryptococcus neoformans", "µg/mL", 0.25),
    ("C/C=C/C=C/C=C/[C@H]1C[C@@H](O)C[C@H](O)[C@@H]1CO", "Cryptococcus neoformans", "µg/mL", 8),
    ("OC(Cn1cncn1)(Cn1cncn1)c1ccc(F)cc1F", "Cryptococcus neoformans", "µg/mL", 1),
]

// for each molecule in input: emit MIC80
1. C[C@@H](c1ncncc1F)[C@](O)(Cn1cncn1)c1ccc(F)cc1F
2. CCC(C)n1ncn(-c2ccc(N3CCN(c4ccc(OCC5COC(Cn6cncn6)(c6ccc(Cl)cc6Cl)O5)cc4)CC3)cc2)c1=O (centres undefined)
3. CN(C/C=C/C#CC(C)(C)C)Cc1cccc2ccccc12

[out]
1: 0.25; 2: 4; 3: 8

[in] Write down the reported MIC80 of `C/C=C/C=C/C=C/[C@H]1C[C@@H](O)[C@H](O)C(=O)[C@@H]1CO` , test system: Cryptococcus neoformans.
[out] 16

* * *

Hi there, I'd appreciate the recorded MIC80 for every entry that follows.
Tested on: Nannizzia gypsea
test_summary: Antifungal activity against Microsporum gypseum Cmccfmza assessed as growth inhibition by automatic microplate reader analysis
Format: functional

# compound, assayed_system, MIC80
records = [
    ("C/C=C/C=C/C=C/[C@H]1C[C@@H](O)C[C@H](O)[C@@H]1CO", "Nannizzia gypsea", "16 µg/mL"),
    ("C[C@@H](O)/C=C/C=C/[C@H]1OC[C@H]2[C@@H](O)[C@@H](O)[C@H](O)C[C@@H]21", "Nannizzia gypsea", "> 64 µg/mL"),
    ("C[C@@H](c1ncncc1F)[C@](O)(Cn1cncn1)c1ccc(F)cc1F", "Nannizzia gypsea", "0.5 µg/mL"),
]

Lab note: next compound to report on.
[in] Name the reported MIC80 value associated with the compound CCC(C)n1ncn(-c2ccc(N3CCN(c4ccc(OCC5COC(Cn6cncn6)(c6ccc(Cl)cc6Cl)O5)cc4)CC3)cc2)c1=O (centres undefined)
[out] 4 µg/mL
